test system: inhibitorischen Autorezeptoren in hippocampalem Gewebe; experiment: Transmitter release study: in vitro acetylcholine release from electrically stimulated hippocampal slices, antagonism of carbachol; format: cell-based, Ratten; details: rat hippocampal slices 0,4 mm, preloaded with ³H-Cholin, electrical stimulation 3 Hz, agonist Carbachol
Attribute: ACh-Release aus Hippocampus-Gewebe (pA₂)

Observe how each entry below is paired with its result.
1. Cc1scc2c1N(C(=O)CN1CCC(CCCN3CCCCC3)CC1)c1ccccc1NC2=O
7,7
2. CN(CCC1CCCN1C)CC(=O)N1c2ccccc2C(=O)Nc2cccnc21 (stereo not shown)
8,5
3. CCN(CC)CC1CCCCN1CC(=O)N1c2cc(Cl)ccc2C(=O)Nc2cccnc21 (racemic)
7,3
4. CCN(CC)CC1CCCCN1CC(=O)N1c2ccccc2C(=O)Nc2cccnc21 (single isomer, unassigned; (+))
7,15
5. CN(CCC1CCCCCN1C)CC(=O)N1c2ccccc2C(=O)Nc2cccnc21 (stereo not shown)
8,45

The molecule CCN(CC)CC1COCCN1CCCC(=O)N1c2ccccc2C(=O)Nc2cccnc21 (stereo not shown) showed ACh-Release aus Hippocampus-Gewebe (pA₂) equal to 7,5

The recorded ACh-Release aus Hippocampus-Gewebe (pA₂) for CCCN(CCC)CC1CCCCN1CCNC(=O)N1c2ccccc2C(=O)Nc2cccnc21.CS(=O)(=O)O (stereo not shown) is 8,35

Query `Cc1scc2c1N(C(=O)CCC#CCN1CCCCCC1)c1ccccc1NC2=O` yields ACh-Release aus Hippocampus-Gewebe (pA₂) of 8,0

In plain terms, O=C1Nc2cccnc2N(C(=O)N2CCCC(CCCN3CCCCC3)C2)c2ccccc21 (stereo not shown) has a documented ACh-Release aus Hippocampus-Gewebe (pA₂) of 9,55

The molecule `O=C1Nc2cccnc2N(C(=O)CCC#CCN2CCCCC2)c2ccccc21` showed ACh-Release aus Hippocampus-Gewebe (pA₂) equal to 7,2

---

Measured -log IC₅₀ (M) accompanies every entry in the list below.
target: muscarinische Rezeptoren der Pia mater des Rindes; test: Inhibition of 3H-NMS binding to muscarinic receptors in bovine pia mater vessel homogenate; design: species or system Rind; conditions: Hemmung der ³H-NMS-Bindung, 0,3 nM [³H]NMS, 45 min, room temperature

1. CCN(CC)CC1CCCCN1CC(=O)N1c2ccccc2C(=O)Nc2cccnc21 (single isomer, unassigned; (+))
7,1 M

For record CN(CCC1CCCN1C)CC(=O)N1c2ccccc2C(=O)Nc2cccnc21 (stereo not shown) the listed -log IC₅₀ (M) is 8,2 M

CCCN(CCC)CC1CCCCN1CCNC(=O)N1c2ccccc2C(=O)Nc2cccnc21.CS(=O)(=O)O (stereo not shown) yielded -log IC₅₀ (M) of 7,9 M

For record `O=C1Nc2cccnc2N(C(=O)CCC#CCN2CCCCC2)c2ccccc21` the listed -log IC₅₀ (M) is 6,9 M

The recorded -log IC₅₀ (M) for entry O=C1Nc2cccnc2N(C(=O)N2CCCC(CCCN3CCCCC3)C2)c2ccccc21 (stereo not shown) equals 8,8 M

Measured -log IC₅₀ (M), CCN(CC)CC1COCCN1CCCC(=O)N1c2ccccc2C(=O)Nc2cccnc21 (stereo not shown) : 7,7 M

What the record says about CN(CCC1CCCCCN1C)CC(=O)N1c2ccccc2C(=O)Nc2cccnc21 (stereo not shown) : -log IC₅₀ (M) is 8,4 M

# compound CCN(CC)CC1CCCCN1CC(=O)N1c2cc(Cl)ccc2C(=O)Nc2cccnc21 (racemic) ; its -log IC₅₀ (M) = 7,5 M

// `Cc1scc2c1N(C(=O)CCC#CCN1CCCCCC1)c1ccccc1NC2=O` : -log IC₅₀ (M) value = 8,0 M

The compound `Cc1scc2c1N(C(=O)CN1CCC(CCCN3CCCCC3)CC1)c1ccccc1NC2=O` showed -log IC₅₀ (M) equal to 8,6 M
